Taken from paper PMC9329325.

Tested on: T-47D
Procedure Summary: MTT anti-proliferative assay, T-47D
Assay type: cell-based, human
Measurement Setup: Homo sapiens, T47D, 48 h exposure, mean ± S.D. of 3 separate experiments
Experimental: The cytotoxic effects of herein prepared pyrazole- thiazol-4-one hybrids 9a-p against BC MDA-MB-231 and T-47D cell lines, obtained from American Type Culture Collection (ATCC), were determined using the MTT assay protocol. It is worth to mention that the selected cancer cell lines in this study are EGFR-expressing cell lines[25]–[28]. Doxorubicin and Erolitinib were utilized as positive control (Table 1). […]
Parameter Measured: pIC50
Conceptually, pIC50 converts a concentration in mol/L into minus its log10.

Exam item: Any idea what pIC50 was measured for C#Cc1cccc(Nc2ncnc3cc(OCCOC)c(OCCOC)cc23)c1 [Erlotinib, reference compound] ?
Marked response: 5.44

* * *

Test Target: EGFR (Homo sapiens)
Sequence (P00533 25-1210): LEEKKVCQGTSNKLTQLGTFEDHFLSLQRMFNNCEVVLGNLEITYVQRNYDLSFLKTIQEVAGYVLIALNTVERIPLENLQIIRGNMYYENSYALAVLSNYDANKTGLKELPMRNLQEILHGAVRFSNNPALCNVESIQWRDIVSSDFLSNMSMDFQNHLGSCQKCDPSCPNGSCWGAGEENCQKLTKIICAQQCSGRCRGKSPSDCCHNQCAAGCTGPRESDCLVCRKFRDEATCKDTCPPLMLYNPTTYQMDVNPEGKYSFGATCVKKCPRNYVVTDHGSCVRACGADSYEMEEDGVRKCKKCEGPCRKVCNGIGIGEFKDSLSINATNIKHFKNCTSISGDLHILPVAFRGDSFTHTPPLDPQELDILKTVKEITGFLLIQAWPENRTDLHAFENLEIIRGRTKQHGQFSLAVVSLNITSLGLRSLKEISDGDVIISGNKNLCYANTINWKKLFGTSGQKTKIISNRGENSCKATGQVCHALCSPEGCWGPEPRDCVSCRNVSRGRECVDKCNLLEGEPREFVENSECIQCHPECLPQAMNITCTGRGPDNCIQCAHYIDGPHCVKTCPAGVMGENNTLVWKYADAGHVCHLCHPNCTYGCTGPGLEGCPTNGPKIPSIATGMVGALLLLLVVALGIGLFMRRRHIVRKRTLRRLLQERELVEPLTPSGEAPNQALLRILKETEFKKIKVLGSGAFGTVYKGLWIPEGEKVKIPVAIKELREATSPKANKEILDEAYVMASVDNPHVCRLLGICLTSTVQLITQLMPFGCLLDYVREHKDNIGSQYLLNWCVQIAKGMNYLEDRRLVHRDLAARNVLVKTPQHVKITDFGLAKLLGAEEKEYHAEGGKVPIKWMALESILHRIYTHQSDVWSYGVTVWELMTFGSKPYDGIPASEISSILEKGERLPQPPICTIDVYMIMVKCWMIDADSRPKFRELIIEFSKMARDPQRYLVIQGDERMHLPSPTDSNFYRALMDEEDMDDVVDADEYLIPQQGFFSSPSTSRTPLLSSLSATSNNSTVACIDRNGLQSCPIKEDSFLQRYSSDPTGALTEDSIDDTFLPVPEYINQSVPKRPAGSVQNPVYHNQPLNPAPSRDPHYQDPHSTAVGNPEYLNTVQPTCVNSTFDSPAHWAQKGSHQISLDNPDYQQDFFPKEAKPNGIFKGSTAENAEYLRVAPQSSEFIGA
Parameter Measured: pIC50
On this scale, pIC50 is minus log10 of a concentration expressed in M (mol/L).

Exam item: For the compound shown here, CN(C)c1ccc(C=C2SC(N3N=C(c4cccc5ccccc45)CC3c3ccc(Cl)cc3)=NC2=O)cc1 (stereo not shown) , give the reported pIC50.
Marked response: 6.40
